Property: solubility kinetic; scope: individual molecules
Conditions: buffer; pH 7.4; 200.0 µM
The reply should contain only the number, in µg/mL.

// below: answered molecules
COc1ccc(OC)c(NC(=O)CCOc2cccc(C)c2)c1; 23
O=C1CCCN1c1ccc(S(=O)(=O)N2CCCCC2)cc1; 22.5
Cc1ccc(S(=O)(=O)NCc2c(-c3ccccc3)noc2C)cc1; 40.9
Cc1cc(C)cc(NC(=O)c2cccc(NC(=O)c3ccco3)c2)c1; 1
O=C(Nc1ccc(Cl)cn1)C1COc2ccccc2O1 (stereo not given); 2

Problem: Need solubility kinetic, item `O=[N+]([O-])c1ccc(CSc2ccccn2)cc1`
Solution: 15.2

Problem: Can you handle `C=C(C)COc1ccc(-c2nc(N)ncc2-c2ccc(Cl)cc2)c(O)c1` next?
Solution: 1.9

Problem: Can you handle `CCCC(=O)NC(=S)Nc1cccc(Cl)c1N1CCCC1` next?
Solution: 0.5
